# credit: patent US20120277142A1

biological target: T1, TNF-α (UniProt P01375 77-233, limits assumed); experiment: competition ELISA: sample vs plate-bound TNFRI190 for TNF-α, from IC50, relative to wild-type TNFRI171
T1 construct: also called tumor necrosis factor; ligand
RECORDED ENDPOINT: Relative Affinity for Ligand (%)
Give the quantity in %, number only.

Please review the entries below; each comes with its answer.
BINDER	UNIT	Relative Affinity for Ligand (%)
TNFRI171-S35 (receptor, Met-TNFRI171 superlead mutant made in E. coli) MDSVCPQGKYIHPQNNSICCTKCHKGTYLYNDCPGPGQDTDCRECESGSFTAIENFLPACLSCSKCRKEMGQVEISSCTVDRDTVCGCRKNQYRHYWSENLFQCFNCSLCLNGTVHLSCQEKQNTVCTCHAGFFLRENECVSCSNCKKSLECTKLCLPQIENVKGTENSGTT	%	521
TNFRI171-S36 (receptor, Met-TNFRI171 superlead mutant made in E. coli) MDSVCPQGKYIHPQNNSICCTKCHKGTYVYNDCPGPGQDTDCRECESGSFTAMENFLPACLSCSKCRKEMGQVEISSCTVDRDTVCGCRKNQYRHYWSENLFQCFNCSLCLNGTVHLSCQEKQNTVCTCHAGFFLRENECVSCSNCKKSLECTKLCLPQIENVKGTEDSGTT	%	510
TNFRI171-S44 (receptor, Met-TNFRI171 superlead mutant made in E. coli) MDSVCPQGKYIHPQNNSICCTKCHKGTYLYNDCPGPGQDTDCRECESGSFTAHENFLPACLSCSKCRKEMGQVEISSCTVDRDTVCGCRKNQYRHYWSENLFQCFNCSLCLNGTVHLSCQEKQNTVCTCHAGFFLRENECVSCSNCKKSLECTKLCLPQIQNVKGTEDSGTT	%	694

Shift focus to the following entry.
Query: What value of measured Relative Affinity for Ligand (%) is listed for TNFRI171-S57 (receptor, Met-TNFRI171 superlead mutant made in E. coli) MDSVCPQGKYIHPQNNSICCTKCHKGTYVYNDCPGPGQDTDCRECESGSFTAMENFLPACLSCSKCRKEMGQVEISSCTVDRDTVCGCRKNQYRHYWSENLFQCFNCSLCLNGTVHLSCQENQNTVCTCHAGFFLRENECVSCSNCKKSLECTKLCLPQIENVKGTEDSGTT ?
Response: 773
